Experiment: Serum/plasma concentration-time profile after oral dosing in volunteers
Format: in vivo, männliche und weiblichen Probanden
Settings: human, plasma; oral, 100 mg, over a period of 8 hours (Figur 1); read-out: Methanthelinbromidgehalt im Plasma

[
  {
    "molecule": "CC[N+](C)(CC)CCOC(=O)C1c2ccccc2Oc2ccccc21.[Br-] [Methantheliniumbromid]",
    "concentration at 8 h": "~5 ng/mL"
  }
]
